Molecular target: T1, hPRLR.mmh (soluble monomeric human PRLR) (human)
T1 construct: soluble monomeric PRLR protein
T1 chain: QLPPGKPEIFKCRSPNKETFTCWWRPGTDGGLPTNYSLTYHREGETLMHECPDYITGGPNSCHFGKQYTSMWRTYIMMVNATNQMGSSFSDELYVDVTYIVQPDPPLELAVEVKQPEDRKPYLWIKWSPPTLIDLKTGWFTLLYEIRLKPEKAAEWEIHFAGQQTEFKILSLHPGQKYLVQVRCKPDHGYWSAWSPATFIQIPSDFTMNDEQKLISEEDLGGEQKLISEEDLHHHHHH
Assay: SPR (Biacore), antibody capture, 37 C
Attribute Measured: Kd (nM)

H1H6801P (antibody, human IgG1, V domains shown, human IgG1 Fc (H1H)) VH: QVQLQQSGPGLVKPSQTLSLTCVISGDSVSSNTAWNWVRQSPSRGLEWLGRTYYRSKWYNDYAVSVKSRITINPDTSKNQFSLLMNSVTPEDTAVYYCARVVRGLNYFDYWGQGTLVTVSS VL: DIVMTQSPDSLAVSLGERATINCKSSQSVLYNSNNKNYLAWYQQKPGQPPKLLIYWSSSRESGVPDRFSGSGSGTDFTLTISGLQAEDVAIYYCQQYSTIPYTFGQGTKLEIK
4.63
H1H6803P (antibody, human IgG1, V domains shown, human IgG1 Fc (H1H)) VH: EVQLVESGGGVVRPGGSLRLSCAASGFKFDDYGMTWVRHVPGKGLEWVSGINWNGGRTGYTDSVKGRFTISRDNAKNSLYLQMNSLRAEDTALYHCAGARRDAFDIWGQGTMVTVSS VL: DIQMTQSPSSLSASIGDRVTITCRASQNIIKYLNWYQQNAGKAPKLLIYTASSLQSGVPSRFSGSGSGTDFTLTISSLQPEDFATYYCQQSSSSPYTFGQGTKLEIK
2.83
H1H6781P (antibody, human IgG1, V domains shown, human IgG1 Fc (H1H)) VH: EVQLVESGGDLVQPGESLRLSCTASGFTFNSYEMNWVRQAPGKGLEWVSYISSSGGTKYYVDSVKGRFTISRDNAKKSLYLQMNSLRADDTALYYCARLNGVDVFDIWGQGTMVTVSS VL: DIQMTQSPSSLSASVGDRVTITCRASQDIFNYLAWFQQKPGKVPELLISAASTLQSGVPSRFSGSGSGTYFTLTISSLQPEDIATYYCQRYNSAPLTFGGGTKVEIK
0.91
H1H6785P (antibody, human IgG1, V domains shown, human IgG1 Fc (H1H)) VH: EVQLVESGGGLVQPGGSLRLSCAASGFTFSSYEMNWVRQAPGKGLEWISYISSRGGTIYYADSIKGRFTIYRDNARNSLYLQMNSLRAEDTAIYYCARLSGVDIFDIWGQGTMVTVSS VL: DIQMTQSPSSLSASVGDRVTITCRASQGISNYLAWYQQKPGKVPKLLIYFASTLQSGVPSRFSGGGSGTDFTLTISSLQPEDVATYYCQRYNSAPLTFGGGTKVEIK
1.14
H1H6800P (antibody, human IgG1, V domains shown, human IgG1 Fc (H1H)) VH: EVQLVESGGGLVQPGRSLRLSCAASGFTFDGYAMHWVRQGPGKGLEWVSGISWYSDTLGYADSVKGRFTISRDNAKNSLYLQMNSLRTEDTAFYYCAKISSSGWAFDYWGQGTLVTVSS VL: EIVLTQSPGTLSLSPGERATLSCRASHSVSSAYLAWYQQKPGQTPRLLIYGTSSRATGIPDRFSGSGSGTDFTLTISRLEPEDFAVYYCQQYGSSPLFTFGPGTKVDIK
1.47
